Target: human (h) natriuretic peptide receptor A (hNPR-A) (Homo sapiens, UniProt P16066)
Construct: expressed in transfected cells
Assay: AlphaScreen assay for cGMP: BNP-mediated NPR-A activity (cGMP production)
Format: cell-based
Settings: conc. response of compound + 0.1 nM BNP; percentage of maximum BNP-mediated cGMP production; read-out: Max Response
Recorded Endpoint: Emax (%)
# value in %; strip the unit string

The following compounds have reported results that may help.
[
  {
    "Compound": "O=C(Cn1ncc(Cl)c(Cl)c1=O)c1ccc(Cl)s1",
    "Recorded Endpoint": "Emax",
    "Observed Value": 33.4
  },
  {
    "Compound": "O=C(Cn1ncc(Cl)c(Cl)c1=O)c1ccc2c(c1)CCCC2",
    "Recorded Endpoint": "Emax",
    "Observed Value": 27.7
  },
  {
    "Compound": "O=C(Cn1ncc(Cl)cc1=O)c1ccc(Cl)s1",
    "Recorded Endpoint": "Emax",
    "Observed Value": 27
  }
]

Input: Can you share its Emax? I mean this compound: O=C(Cn1ncc(Cl)c(Cl)c1=O)NCCc1cnn(-c2ccccc2)c1
Output: 41

Input: Can you share its Emax? I mean this compound: O=C(Cn1ncc(Cl)c(Cl)c1=O)NCc1cnn(-c2ccccc2)c1
Output: 49.4

Input: Can you share its Emax? I mean this compound: O=C(Cn1ncc(Cl)c(Cl)c1=O)NCCc1c(Cl)cccc1Cl
Output: 39.4

Input: Can you share its Emax? I mean this compound: O=C(Cn1ncc(Cl)c(Cl)c1=O)NC1CC1c1cnn(-c2ccccc2)c1 (racemic)
Output: 30.7

Input: Can you share its Emax? I mean this compound: O=C(Cn1ncc(Br)c(Br)c1=O)c1ccc(Cl)cc1
Output: 37

Input: Can you share its Emax? I mean this compound: Cc1cc(Cl)ccc1C(=O)Cn1ncc(Cl)c(Cl)c1=O
Output: 41

Input: Can you share its Emax? I mean this compound: COc1ccc(C(=O)Cn2ncc(Cl)c(Cl)c2=O)cc1
Output: 38.6

Input: Can you share its Emax? I mean this compound: N#Cc1ccc(C(=O)Cn2ncc(Cl)c(Cl)c2=O)cc1
Output: 44.1

====

Target: β1-adrenergic receptor (Homo sapiens, UniProt P08588)
Sequence (P08588 whole entry): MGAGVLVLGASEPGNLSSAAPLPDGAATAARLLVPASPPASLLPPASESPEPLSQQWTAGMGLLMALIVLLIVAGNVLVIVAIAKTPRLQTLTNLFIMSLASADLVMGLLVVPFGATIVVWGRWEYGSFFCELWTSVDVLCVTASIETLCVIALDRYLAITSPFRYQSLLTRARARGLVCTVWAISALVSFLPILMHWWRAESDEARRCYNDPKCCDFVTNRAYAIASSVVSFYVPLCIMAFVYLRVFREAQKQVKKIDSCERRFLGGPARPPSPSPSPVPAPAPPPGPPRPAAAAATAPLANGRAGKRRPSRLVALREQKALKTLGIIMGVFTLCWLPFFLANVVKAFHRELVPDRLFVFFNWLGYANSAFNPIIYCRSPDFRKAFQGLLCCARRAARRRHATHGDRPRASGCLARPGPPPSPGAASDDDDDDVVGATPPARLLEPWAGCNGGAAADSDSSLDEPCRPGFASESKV
Test: Safety pharmacology panel (SafetyScan E/IC50 ELECT)
Conditions: minor activity; 78-target panel
Recorded Endpoint: IC50

Input: Can you share its IC50? I mean this molecule: O=C(Cn1nccc(Cl)c1=O)c1ccc(Cl)cc1Cl
Output: > 6 µM

====

Biological target: β2-adrenergic receptor (Homo sapiens, UniProt P07550)
Sequence (P07550 whole entry): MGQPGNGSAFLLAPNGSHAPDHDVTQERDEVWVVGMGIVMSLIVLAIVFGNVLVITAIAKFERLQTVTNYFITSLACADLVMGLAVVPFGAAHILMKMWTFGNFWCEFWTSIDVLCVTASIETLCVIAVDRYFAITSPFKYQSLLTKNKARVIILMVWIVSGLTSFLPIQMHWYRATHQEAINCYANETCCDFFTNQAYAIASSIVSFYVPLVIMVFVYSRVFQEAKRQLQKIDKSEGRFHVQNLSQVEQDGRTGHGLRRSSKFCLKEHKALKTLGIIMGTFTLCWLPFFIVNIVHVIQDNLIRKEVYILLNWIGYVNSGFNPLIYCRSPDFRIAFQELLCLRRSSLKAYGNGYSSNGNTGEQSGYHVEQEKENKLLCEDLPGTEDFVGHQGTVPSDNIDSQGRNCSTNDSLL
Assay: Safety pharmacology panel (SafetyScan E/IC50 ELECT)
Conditions: minor activity; 78-target panel
pIC50: −log10 of the molar value.
Recorded Endpoint: pIC50

Input: Can you share its pIC50? I mean this compound: O=C(Cn1nccc(Cl)c1=O)c1ccc(Cl)cc1Cl [Compound 24]
Output: < 5.22

====

Target: human (h) natriuretic peptide receptor A (hNPR-A) (Homo sapiens, UniProt P16066)
Construct: expressed in transfected cells
Sequence (P16066 33-1061): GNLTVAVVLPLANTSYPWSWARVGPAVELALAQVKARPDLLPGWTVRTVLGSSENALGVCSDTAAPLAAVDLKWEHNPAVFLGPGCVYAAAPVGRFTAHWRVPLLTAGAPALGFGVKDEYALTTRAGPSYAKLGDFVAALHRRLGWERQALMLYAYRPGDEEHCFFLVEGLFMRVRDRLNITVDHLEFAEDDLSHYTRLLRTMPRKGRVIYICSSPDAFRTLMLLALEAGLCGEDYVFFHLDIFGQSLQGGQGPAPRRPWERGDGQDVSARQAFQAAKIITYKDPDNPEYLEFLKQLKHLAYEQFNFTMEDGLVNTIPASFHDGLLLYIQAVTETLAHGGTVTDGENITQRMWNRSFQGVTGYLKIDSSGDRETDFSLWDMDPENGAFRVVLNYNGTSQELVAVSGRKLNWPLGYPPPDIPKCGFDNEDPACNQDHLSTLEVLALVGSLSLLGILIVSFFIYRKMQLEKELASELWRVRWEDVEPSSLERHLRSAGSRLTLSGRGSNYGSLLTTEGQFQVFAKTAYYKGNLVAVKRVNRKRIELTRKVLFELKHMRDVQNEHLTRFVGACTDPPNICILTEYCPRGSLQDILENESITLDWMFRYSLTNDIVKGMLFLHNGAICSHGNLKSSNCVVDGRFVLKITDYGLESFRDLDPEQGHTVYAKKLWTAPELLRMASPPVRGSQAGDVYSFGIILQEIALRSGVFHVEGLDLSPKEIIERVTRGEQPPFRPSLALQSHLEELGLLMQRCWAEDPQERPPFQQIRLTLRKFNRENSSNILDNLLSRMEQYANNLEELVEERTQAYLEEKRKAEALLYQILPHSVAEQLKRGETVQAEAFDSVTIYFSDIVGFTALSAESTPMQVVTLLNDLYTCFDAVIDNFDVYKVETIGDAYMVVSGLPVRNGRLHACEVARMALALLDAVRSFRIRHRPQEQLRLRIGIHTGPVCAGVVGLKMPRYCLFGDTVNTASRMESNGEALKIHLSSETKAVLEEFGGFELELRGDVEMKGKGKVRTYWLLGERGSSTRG
Sequence (P16860 103-134 partner limits assumed): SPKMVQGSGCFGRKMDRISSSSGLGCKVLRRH
Assay: AlphaScreen assay for cGMP: BNP-mediated NPR-A activity (cGMP production)
Format: cell-based
Conditions: conc. response of compound + 0.1 nM BNP; NPR-A-expressing HEK293 cells; read-out: -LogEC50 (compound) (converted)
Sorting guide: entries reporting EC50 beneath 0.4 µM go in the Yes pile, the rest go in the No pile.

[
  {
    "Molecule": "O=C(Cn1ncc(Cl)c(Cl)c1=O)c1ccc(Cl)cc1",
    "Class Name": "Yes"
  },
  {
    "Molecule": "O=C(Cn1ncc(Cl)c(Cl)c1=O)c1ccc(Cl)s1",
    "Class Name": "Yes"
  },
  {
    "Molecule": "N#Cc1ccc(C(=O)Cn2ncc(Cl)c(Cl)c2=O)cc1",
    "Class Name": "No"
  },
  {
    "Molecule": "O=C(Cn1ncc(Cl)c(Cl)c1=O)NCCc1cnn(-c2ccccc2)c1",
    "Class Name": "No"
  }
]

Input: Strictly below 0.4 µM: is that where EC50 of O=C(Cn1ncc(Cl)c(Cl)c1=O)c1ccc(Cl)cc1Cl sits?
Output: Yes

Input: Strictly below 0.4 µM: is that where EC50 of CC(C)c1ccc(CCNC(=O)Cn2ncc(Cl)c(Cl)c2=O)cc1 sits?
Output: No

Input: Strictly below 0.4 µM: is that where EC50 of Cc1cc(C(=O)Cn2ncc(Cl)c(Cl)c2=O)ccc1Cl sits?
Output: No

Input: Strictly below 0.4 µM: is that where EC50 of O=C(Cn1nccc(Cl)c1=O)c1ccc(Cl)cc1Cl sits?
Output: Yes

Input: Strictly below 0.4 µM: is that where EC50 of O=C(Cn1ncc(Cl)c(Cl)c1=O)Nc1cnn(-c2ccccc2)c1 sits?
Output: No

Input: Strictly below 0.4 µM: is that where EC50 of O=C(Cn1ncc(Cl)c(Cl)c1=O)NC1CC1c1cnn(-c2ccccc2)c1 (racemic) sits?
Output: Yes

Input: Strictly below 0.4 µM: is that where EC50 of O=C(Cn1ncc(Cl)cc1=O)c1ccc(Cl)cc1 sits?
Output: No

Input: Strictly below 0.4 µM: is that where EC50 of Cc1cc(Cl)ccc1C(=O)Cn1ncc(Cl)c(Cl)c1=O sits?
Output: Yes

Input: Strictly below 0.4 µM: is that where EC50 of O=C(Cn1ncc(Cl)c(Cl)c1=O)NCc1cnn(-c2ccccc2)c1 sits?
Output: No

Input: Strictly below 0.4 µM: is that where EC50 of COc1ccc(C(=O)Cn2ncc(Cl)c(Cl)c2=O)cc1 sits?
Output: No

Input: Strictly below 0.4 µM: is that where EC50 of O=C(Cn1ncc(Br)c(Br)c1=O)c1ccc(Cl)cc1 sits?
Output: Yes

Input: Strictly below 0.4 µM: is that where EC50 of O=C(Cn1nccc(Cl)c1=O)c1ccc(Cl)cc1 sits?
Output: No

Input: Strictly below 0.4 µM: is that where EC50 of O=C(Cn1ncc(Cl)c(Cl)c1=O)c1ccc2c(c1)CCCC2 sits?
Output: No

Input: Strictly below 0.4 µM: is that where EC50 of O=C(Cn1ncc(Cl)cc1=O)c1ccc(Cl)s1 sits?
Output: No

Input: Strictly below 0.4 µM: is that where EC50 of O=C(Cn1ncc(Cl)c(Cl)c1=O)C12CC3CC(CC(C3)C1)C2 sits?
Output: No

Input: Strictly below 0.4 µM: is that where EC50 of O=C(Cn1ncc(Cl)c(Cl)c1=O)NCCc1c(Cl)cccc1Cl sits?
Output: No
